B1: RSPH3 (parent)
chain: QRLEEQERRHREEKERRKKQQWEI

Variants of: B1
run-description: protein stability index of a GFP-peptide fusion (GPS, HEK-293T) (PSI 1-6); higher = more stable;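 note: lentivirally expressed fusions sorted by FACS into six bins by GFP to DsRed ratio, PSI derived from sequencing read proportions per bin multiplied by bin number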
measurement-conditions: c terminus: a fixed tail appended

[
  {
    "variant-id": "W22N",
    "protein stability index": 5.52
  },
  {
    "variant-id": "Q20E",
    "protein stability index": 4.8
  },
  {
    "variant-id": "K14V",
    "protein stability index": 4.72
  },
  {
    "variant-id": "R17P",
    "protein stability index": 4.31
  },
  {
    "variant-id": "E15T",
    "protein stability index": 4.7
  },
  {
    "variant-id": "L3D",
    "protein stability index": 4.82
  },
  {
    "variant-id": "Q6S",
    "protein stability index": 4.82
  },
  {
    "variant-id": "W22H",
    "protein stability index": 4.97
  },
  {
    "variant-id": "L3H",
    "protein stability index": 4.54
  },
  {
    "variant-id": "Q1M",
    "protein stability index": 4.76
  },
  {
    "variant-id": "E12S",
    "protein stability index": 3.99
  },
  {
    "variant-id": "W22Q",
    "protein stability index": 5.15
  },
  {
    "variant-id": "E15D",
    "protein stability index": 4.68
  },
  {
    "variant-id": "Q20F",
    "protein stability index": 4.19
  },
  {
    "variant-id": "I24W",
    "protein stability index": 4.51
  },
  {
    "variant-id": "Q20W",
    "protein stability index": 4.36
  },
  {
    "variant-id": "Q6M",
    "protein stability index": 3.96
  },
  {
    "variant-id": "Q6R",
    "protein stability index": 4.42
  },
  {
    "variant-id": "L3A",
    "protein stability index": 4.37
  },
  {
    "variant-id": "Q1L",
    "protein stability index": 4.35
  },
  {
    "variant-id": "E4K",
    "protein stability index": 4.44
  },
  {
    "variant-id": "H10T",
    "protein stability index": 4.79
  }
]
